- assayed_system: GABRA1
- test_protocol: pooled miR-30 sensor sort-seq; sequence = guide strand; further: reference of the scale not given here
- settings: shRNA
quantity: sensor-assay potency score (higher = more potent)
Enter a number only.

// query sensor-assay potency score (higher = more potent) value for entry TATATATCTACAAATGACCTAG
0.243

May I ask what sensor-assay potency score (higher = more potent) has been recorded for TTTTCTTGTATCTTTGAACCAT ?
0.355

// returns reported sensor-assay potency score (higher = more potent) for input TTGTCCAAGAAGGTCATACTGG
-0.186

I have this sequence here, TTAGTGAAATAGTTTACTGTGG , and I need its recorded sensor-assay potency score (higher = more potent).
-0.522

What sensor-assay potency score (higher = more potent) value was documented for this sequence, TTGTGAGAGAATCACTGTCATT ?
-1.6

Report sensor-assay potency score (higher = more potent) for TTTCTTGTATCTTTGAACCATC please.
-0.813

Look up sensor-assay potency score (higher = more potent) for this sequence: TAAACAACTTCTGCTCTTGTAT
-0.033

Please look up its sensor-assay potency score (higher = more potent): TTAAATATCTGTTAAACTCTAT
-0.0161

Report sensor-assay potency score (higher = more potent) for TACTTGACTGGACAATTCCAGA please.
-1.07

Fill in: sensor-assay potency score (higher = more potent) of TCTTCTGCTACAACCACTGAGC is ___
-0.0993

Return reported sensor-assay potency score (higher = more potent); argument: TTACACGCTCTCCCAATCCTGG
-1.04

What measured sensor-assay potency score (higher = more potent) goes with TACTGTGGCAAACTCAATCAGA ?
-0.32

Suppose we examine the sequence TACATCTATTGTATATTCCATA ; what sensor-assay potency score (higher = more potent) value has been reported?
-0.691

###

- assayed_system: HEATR8
- test_protocol: pooled miR-30 sensor sort-seq; sequence = guide strand
- settings: shRNA
Parameter class (string): assigned from measured sensor-assay potency score (higher = more potent). Ranges: lower bin (below -1), middle bin (-1 to below -0.4), upper bin (-0.4 or more)

Which category fits this record: TTCTTTATCATGGTCTTCTTTT
lower bin

Please indicate the class for TTCAGGTTCAGCTTGGAGGTGT based on its sensor-assay potency score (higher = more potent).
upper bin

Textbook exercise: identify the category of the sequence given here, TTGGCGGTCTTCTCAGACCTGC , according to its measured value.
middle bin

Please report the category associated with TAACAGGGTCTTCACACACTTC , nothing else.
lower bin

Hi there! Could you help me figure out the category for AACATGACTGAGCACTTCCGGA please?
middle bin

Please indicate the class for TTGGTCTCTTCCTTATCTCTGG based on its sensor-assay potency score (higher = more potent).
middle bin

Where would TAACACACCCATGAGTTCCCGT land among the classes by reported sensor-assay potency score (higher = more potent)?
middle bin

Input TTGAGTGATGGTCACGCTCAAA ; output its category
lower bin

Returns: class label. Input: TTCAACACAGAGACATTGGTGT
upper bin

###

- assayed_system: IPO9
- test_protocol: pooled miR-30 sensor sort-seq; sequence = guide strand
- settings: shRNA
# if value of sensor-assay potency score (higher = more potent) reaches -0.7, tag y; if it stays below, tag n

Check if sensor-assay potency score (higher = more potent) >= -0.7 (inclusive). Item: TTGTATTTCGTACTACTGTTGT
y

In plain terms: is recorded sensor-assay potency score (higher = more potent) at least -0.7 for TTACAGAGTGCCACAGAGCTGA ?
y

Determine whether this sequence has sensor-assay potency score (higher = more potent) no lower than -0.7: TTGCTTTCCATGCTTGCTGTGA
y

Item TTTGCTTATCGATTCTCTCAAC with sensor-assay potency score (higher = more potent) of -0.7 or above?
n

I'd appreciate it if you could say whether TTGTCATCTGCATTGATGCCAT has sensor-assay potency score (higher = more potent) at least equal to -0.7.
y

Determine whether measured sensor-assay potency score (higher = more potent) meets or exceeds -0.7 for TATAGGAGAATGTATCATCATC
n
